- Target or system: T1, hGCGR-mmh (human)
- T1 construct: also called REGN547; monovalent hGCGR
- T1 chain: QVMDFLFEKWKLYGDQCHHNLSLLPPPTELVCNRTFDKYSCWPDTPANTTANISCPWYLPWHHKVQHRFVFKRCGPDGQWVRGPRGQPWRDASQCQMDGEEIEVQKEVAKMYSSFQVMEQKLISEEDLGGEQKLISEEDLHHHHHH
- Experimental details: SPR Biacore T100, 37C, mAb captured, antigen flowed
Catalogue of kon readings, one per entry.
Lab book: enter the figure in M⁻¹ s⁻¹, no units written.

Worked cases, kon given:
{"columns": ["Binder", "kon / M⁻¹ s⁻¹"],
 "data": [
  ["H4H1765N (antibody, V domains shown, Anti-GCGR antibody from hybridoma; the controls are called isotype-matched hIgG4) VH: EEQLVESGGDLVQPGGSLRLSCAASGFTLSSYEMNWVRQAPGKGLEWVSYISRGGSLIHYTDSVKGRFTISRDNAKNSLYLQMNSLRAEDTAVYYCVRDPAARYHYYYHGMDVWGQGTTVTVSS VL: DIVMTQSPLSLPVTPGEPASISCRSSQSLLHNNGYNYLDWYLQKPGQSPQLLIYLGSSRASGVPDRFSGSGSGTDFILKISRVEAEDVGVYYCMQALQTPWTFGRGTKVEIK", 441000],
  ["H4H1327P (antibody, V domains shown, also called anti-GCGR (hIgG4) antibody designated H4H1327P) VH: EVQLVESGGGLVQPGGSLRLSCAASGFTFSNYLMNWVRQAPGKGLEWLANIQEDGIEKYYVDSVKGRFTISRDNAKNSLYLQMNSLRAEDTAVYYCAREPSHYDILTGYDYYYGMDVWGQGTTVTVS VL: DIQMTQSPSSLSASVGDRVTITCRASQGIRNDLGWYQQKPGKAPKRLIYAASSLQSGVPSRFSGSGSGTEFILTVSSLQPEDFATYYCLQYNSNPFTFGPGTKVDIK", "1.48e+06"],
  ["H4H1339P (antibody, V domains shown, Fully human anti-GCGR antibody; the controls are called isotype-matched hIgG4) VH: EVQLVESGGGMVQPGGSLRLSCAASGFTSSNYDMHWVRQATGKGLEWVSSIDTAGDTYYPDSVKGRFIISRENAKNSLYLQMNSLRAGDTAVYYCTREPRNYEILTGHYHYHGMDIWGQGTTVTVS VL: AIQMTQSPSSLSASVGDRVTITCRASQAIRNDLGWYQQKPGKAPKLLIYTAFSLQSGVPSRFSGSKSGTDFTLTISSLQPEDFATYYCLQDYTNPRTFGQGTKVEIK", 876000],
  ["H4H1331P (antibody, V domains shown, Fully human anti-GCGR antibody; the controls are called isotype-matched hIgG4) VH: QVQLVESGGGVVQPGRSLRLSCAASGFTFSNFGMHWVRQAPGKGLEWVAVIWFDEIDKYYADSVKGRFTISRDNSKNTLYPQMNSLRAEDTAVYYCAREDYDILTGYYYAMDVWGQGTTVTVS VL: DIQMTQSPSSLSASVGDRVTITCRASQGIKNDLGWYQQKPGKAPKRLIYAASRLQSGVPSRFSGSGSGTEFTLTISSLQPEDFGTYYCLQHNSHPTFGQGTKVEIK", 973000],
  ["H4H1321P (antibody, V domains shown, Fully human anti-GCGR antibody; the controls are called isotype-matched hIgG4) VH: QVQLVESGGGVVQPGRSLRLSCAASGFTFSSYDMHWVRQAPGKGLEWVAVISSDGRDKYYVDSVKGRFTISRDNSKNTLYLQMNSLRAEDTAVYYCAKEMVYYDILTGYHNYYGMDVWGQGTTVTVS VL: DIQMTQSPSSLSASVGDRVTITCRASQGINNYLAWFQQKPGKAPKSLIHTASSLQSGVPSKFSGSGSGTDFTLTISSLQPEDFATYYCQQYNTYPLTFGGGTKVEIK", "1.58e+06"]
]}

Query block: Answer with reported kon of H4H1328P (antibody, V domains shown, Fully human anti-GCGR antibody; the controls are called isotype-matched hIgG4) VH: EVQLVESGGALVQPGGSLRLSCTASGFTFSNYDMHWVRQTTGKGLEWISAIDTAGDTYYPGSVKGRFTVSRENAKNSFYLQMNSLRAGDTAVYYCAREGKYYDILTGDYHYYGMDVWGQGTTVTVS VL: DIQMTQSPSSLSASVGDRVTITCRASQGIRNDLGWYQQKPGKAPKRLIYATSSLQSGVPSRFSGSGSGTEFTLTISSLQPEDFATYYCLQHNSYPLTFGGGTKLEIK
Result block: 1.61e+06

Data credit: patent US20130251728A1
